Task for the reader: assign each of the following molecules its reported isobaric coefficient of expansion.
method description: isobaric coefficient of expansion
measurement context: 328.15 K; 55000 kPa; Liquid; DSC

Problem: Which measured isobaric coefficient of expansion value corresponds to CCC[N+](=O)[O-] [1-nitropropane] ?
Solution: 0.00088 1/K

Problem: isobaric coefficient of expansion for CC[N+](=O)[O-] [nitroethane] ?
Solution: 0.000944 1/K

Problem: Look up isobaric coefficient of expansion: O=[N+]([O-])c1ccccc1 [nitrobenzene]
Solution: 0.000707 1/K

Problem: Which isobaric coefficient of expansion is reported for this molecule? CCC#N [propanenitrile]
Solution: 0.001 1/K

Problem: Which measured isobaric coefficient of expansion value corresponds to C[N+](=O)[O-] [nitromethane] ?
Solution: 0.00101 1/K

###

method description: isobaric coefficient of expansion
measurement context: 338.15 K; 25000 kPa; Liquid; DSC
metric name: isobaric coefficient of expansion

Problem: Query: isobaric coefficient of expansion; subject: CCC[N+](=O)[O-] [1-nitropropane]
Solution: 0.00102 1/K

Problem: What does the data say about its isobaric coefficient of expansion? Entry: O=[N+]([O-])c1ccccc1 [nitrobenzene]
Solution: 0.000775 1/K

Problem: Return reported isobaric coefficient of expansion; argument: CC[N+](=O)[O-] [nitroethane]
Solution: 0.00108 1/K

Problem: Query (molecule): N#Cc1ccccc1 [benzonitrile] ; field requested: isobaric coefficient of expansion
Solution: 0.000799 1/K

Problem: So what does the record say about isobaric coefficient of expansion for CCC#N [propanenitrile] ?
Solution: 0.0012 1/K

Problem: If you can, please state the reported isobaric coefficient of expansion value of C[N+](=O)[O-] [nitromethane] .
Solution: 0.00117 1/K

###

method description: isobaric coefficient of expansion
measurement context: 338.15 K; 15000 kPa; Liquid; DSC
Record form. Attribute: isobaric coefficient of expansion. Fill in for each entry.

Problem: Please look up its isobaric coefficient of expansion: CC[N+](=O)[O-] [nitroethane]
Solution: 0.00114 1/K

Problem: May I ask what isobaric coefficient of expansion has been recorded for CCC[N+](=O)[O-] [1-nitropropane] ?
Solution: 0.00109 1/K

Problem: If you can, please state the reported isobaric coefficient of expansion value of C[N+](=O)[O-] [nitromethane] .
Solution: 0.00124 1/K

Problem: State the recorded isobaric coefficient of expansion for this entry: O=[N+]([O-])c1ccccc1 [nitrobenzene]
Solution: 0.000806 1/K

Problem: Would you kindly share the measured isobaric coefficient of expansion for N#Cc1ccccc1 [benzonitrile] ?
Solution: 0.000826 1/K

Problem: Item under review: CCC#N [propanenitrile] . Reported isobaric coefficient of expansion?
Solution: 0.0013 1/K

###

method description: isobaric coefficient of expansion
measurement context: 338.15 K; 5000 kPa; Liquid; DSC
metric name: isobaric coefficient of expansion

Problem: Report isobaric coefficient of expansion for CCC#N [propanenitrile] please.
Solution: 0.00144 1/K

Problem: I'd like to know its isobaric coefficient of expansion. The compound in question is N#Cc1ccccc1 [benzonitrile]
Solution: 0.000863 1/K

Problem: Return reported isobaric coefficient of expansion; argument: CC[N+](=O)[O-] [nitroethane]
Solution: 0.00122 1/K

Problem: What does the data say about its isobaric coefficient of expansion? Entry: CCC[N+](=O)[O-] [1-nitropropane]
Solution: 0.00119 1/K

Problem: I'd like to know its isobaric coefficient of expansion. The compound in question is C[N+](=O)[O-] [nitromethane]
Solution: 0.00134 1/K

Problem: Name the reported isobaric coefficient of expansion value associated with the compound O=[N+]([O-])c1ccccc1 [nitrobenzene]
Solution: 0.000843 1/K
